observed property: melting point

Endpoint output: melting point of C=C(C)[C@@H]1CC[C@]2(C(=O)N[C@H]3C[C@@H](C(=O)N4CCCCC4)C3(C)C)CC[C@]3(C)[C@H](CC[C@@H]4[C@@]5(C)CC[C@H](OC(=O)[C@@H]6C[C@H](C(=O)O)C6(C)C)C(C)(C)[C@@H]5CC[C@]43C)[C@@H]12 . Value?
258 to 269 °C

I need melting point for every entry listed below, if you could help.
1. CCCCCCCCCCCCCCCCCCN(CCCCCCCCCCCCCCCCCC)C(=O)c1cc(NS(=O)(=O)c2ccc(Cl)nc2)c2ccccc2c1O
2. COc1ccc([C@@H]2Sc3ccccc3N(CCN(C)C)C(=O)[C@@H]2OC(=O)CCC(=O)O[C@H]2C(=O)N(CCN(C)C)c3ccccc3S[C@H]2c2ccc(OC)cc2)cc1 (relative stereo)
3. CSCC[C@H](NC(=O)[C@H](CC(C)C)NC(=O)[C@H](C)NC(=O)[C@@H](N)CC(C)C)C(=O)NCCNc1ccc(NCCNC(=O)[C@H](CCSC)NC(=O)[C@H](CC(C)C)NC(=O)[C@H](C)NC(=O)[C@@H](N)CC(C)C)c2c1C(=O)c1c(O)ccc(O)c1C2=O

["80 to 83 °C", "112 to 115 °C", "210 °C"]

What value of measured melting point is listed for C[C@H](Cc1ccc(OCCCN2CCCCC2)c(OCCCN2CCCCC2)c1)[C@@H](C)Cc1ccc(OCCCN2CCCCC2)c(OCCCN2CCCCC2)c1 ?
84 to 86 °C

* * *

Residues, ends and D or L forms follow the SMILES beside them. *: point of attachment. Butoxycarbonyl = CCCCOC(=O)*; Bn = c1ccc(C*)cc1
observed property: melting point

Param item = CC(=O)ON=C(N)c1ccc(CN(CCCCNC(=O)OC(C)(C)C)C(=O)CNC(=O)CN(CCc2ccccc2)S(=O)(=O)c2ccc(Cl)c(C)c2Cl)cc1 ; retrieve measured melting point.
100 °C

Required: melting point, one value per compound below.
1. CCCCCCCCCCCCCCCCCCOC(=O)C1(C(=O)OCCCCCCCCCCCCCCCCCC)COC2(CC(C)(C)NC(C)(C)C2)OC1
2. CCCCCCCCCCCCCCCCCCCCCCCCCCCCCCCCCCCCCCCCCCCC
3. Cc1nc(C(=O)Cl)c(C)o1
4. CCCCOC(=O)NC(COCc1ccccc1)C(=O)NC(Cc1c[nH]c2ccccc12)C(=O)NC(CO)C(=O)NC(Cc1ccc(O)cc1)C(=O)NC(Cc1ccccc1)C(=O)NC(CC(C)C)C(=O)OC (configuration not stated) (Butoxycarbonyl-S(Bn)WSYFL-OMe; configuration not given here)
5. CC1(C)CC(OC(=O)C(CCCCCCC(Cc2ccccc2)(C(=O)OC2CC(C)(C)NC(C)(C)C2)C(=O)OC2CC(C)(C)NC(C)(C)C2)(Cc2ccccc2)C(=O)OC2CC(C)(C)NC(C)(C)C2)CC(C)(C)N1

1: 54 to 56 °C; 2: 87.5 to 88 °C; 3: 37.7 °C; 4: 200 to 202 °C; 5: 129 to 130 °C

Give the measured melting point of COc1cc2c(cc1I)C(=O)CC2 .
129 to 130 °C

* * *

Answer each item with its documented melting point.

Here is how some compounds turned out for melting point.
Fill in the blank: the reported melting point of Cc1ccc(S(=O)(=O)N2CCN(S(=O)(=O)c3ccc(C)cc3)CCN(S(=O)(=O)c3ccc(C)cc3)CC(C)N(S(=O)(=O)c3ccc(C)cc3)CCN(S(=O)(=O)c3ccc(C)cc3)CC2)cc1 (configuration not stated) is ____.
245 to 247 °C

# get_value(readout='melting point', item= CCCCCCCCCCCCCCCCCC(=O)OCC(COC(=O)C(N)Cc1ccc(N(CCCl)CCCl)cc1)OC(=O)CCCCCCCCCCCCCCCCC (configuration not stated) )
82 to 83 °C

Which value of melting point has been reported for CCCCCCCCCCCCCCCCCCN(CCCCCCCCCCCCCCCCCC)C(=O)c1cc(NS(=O)(=O)c2cnc(Cl)c(Cl)c2)c2ccccc2c1O in the records?
88 to 89 °C

Given the entry CC(C)(C)OC(=O)N(CNCCNC(=O)CCOCC(COCCC(=O)NCCNCN(C(=O)OC(C)(C)C)C(=O)OC(C)(C)C)(COCCC(=O)NCCNCN(C(=O)OC(C)(C)C)C(=O)OC(C)(C)C)NC(=O)OCc1ccccc1)C(=O)OC(C)(C)C , report its measured melting point.
86 to 88 °C

Any idea what its melting point is? The compound is CN=S(=O)(NC(=O)Nc1nc(OC)cc(OC)n1)c1ccccc1Br (configuration not stated)
120 to 125 °C

Take each entry in turn and give its melting point.
1. O=C(O)c1ccnc(F)c1
2. CCNC(Cc1cc(I)c(Oc2cc(I)c(O)c(I)c2)c(I)c1)C(=O)O (configuration not stated)

1. 195 to 197 °C
2. 191 to 193 °C

* * *

Exercise: for every item that follows, state its recorded melting point.
Numbers only, in °C.

Recorded melting point for C1CCC2NCCC2C1 (centres undefined) , please?
85

Read the next record carefully.
Suppose we examine the molecule COc1cc(C2c3cc4c(cc3C(NC(=O)CNCCCN(CCCCNC(=O)OCc3ccccc3)C(=O)OCc3ccccc3)C3COC(=O)C23)OCO4)cc(OC)c1O (centres undefined) ; what melting point value has been reported?
255

* * *

For each record, write down the corresponding melting point.

Some compounds with known melting point results, for comparison:
What value of melting point has been reported for the following compound? Cc1cc(-n2ccnc2)c2cccc(OCc3c(Cl)ccc(S(=O)(=O)N4CCCC4C(=O)NCC4CCN(C(=O)CCCC(=O)OC(C)(C)C)CC4)c3Cl)c2n1 (stereo not given)
112 °C

I have this compound here, CC(C)CC1C(=O)OC(Cc2ccc(OCc3ccco3)cc2)C(=O)N(C)C(CC(C)C)C(=O)OC(C)CN(C)C(CC(C)C)C(=O)OC(Cc2ccc(OCc3ccco3)cc2)C(=O)N(C)C(CC(C)C)C(=O)OC(C)CN1C (stereo not given) , and I need its recorded melting point.
116 to 119 °C

What does the record list as melting point for NS(=O)(=O)c1cccc(-c2noc(-c3cnn4ccc(-c5ccc(C(F)(F)F)cc5)nc34)n2)c1 ?
270 °C

Which melting point is listed for CCCCCCCCCCCCc1ccsc1-c1ccc2c(c1)=C(C(C#N)C#N)c1cc3c(cc1=2)C(C(C#N)C#N)=c1cc(-c2sccc2CCCCCCCCCCCC)ccc1=3 ?
232 to 233 °C

Kindly consider the entry below.
Entry under review: Cc1c(C2=CC(c3c(C)n(Cc4ccc(Cl)cc4)c4ccc([N+](=O)[O-])cc34)(c3c(C)n(Cc4ccc(Cl)cc4)c4ccc([N+](=O)[O-])cc34)OC2=O)c2cc([N+](=O)[O-])ccc2n1Cc1ccc(Cl)cc1 . Reported melting point?
227 to 228 °C

* * *

Assignment: determine reported melting point for the given compounds.

Please review the entries below; each comes with its answer.
Could you tell me which melting point is on file for [C-]#[N+]C1(C)CN(C(=O)Nc2ccc(C(F)(F)F)cc2)N=C1c1ccc(Cl)cc1 (stereo unspecified) ?
171 to 173 °C

Fill in: melting point of CC=C(C)C(=O)NC(c1ccccc1)C(O)C(=O)OC1CC2(O)C(OC(=O)c3ccccc3)C3C4(OC(C)=O)COC4CC(O)C3(C)C(=O)C(OC(C)=O)C(=C1C)C2(C)C (stereo unspecified) is ___
184 to 186 °C

Recorded melting point of CC(C)(O)C(=O)c1ccc(C(OC(=O)c2ccc(C(=O)OC(c3ccc(C(=O)C(C)(C)O)cc3)c3ccc(C(=O)C(C)(C)O)cc3)cc2)c2ccc(C(=O)C(C)(C)O)cc2)cc1 , please.
102 °C

I'm hoping you can list melting point for every compound here, please.
1. CCC(O)C=CC=CC=CC(=O)OCC1OC(OC2C(CO)OC3(OCc4cc(O)cc(O)c43)C(O)C2OC(=O)C=CC=CCC(O)C(C)=CC=CCCC(C)CC)C(O)C(O)C1O (stereo unspecified)
2. Cc1cccc(-c2cc3ccccc3c(Cl)n2)n1

1. 193 to 197 °C
2. 142 to 144 °C

// query melting point value for entry O=C(OCCCCCCOc1ccc(-c2ccccc2)cc1)c1cc([N+](=O)[O-])ccc1-c1ccc([N+](=O)[O-])cc1C(=O)OCCCCCCOc1ccc(-c2ccccc2)cc1
121 to 122 °C

* * *

What melting point was measured for each of the following?

Field: example entries. Status: answers known.
Look at this compound and give its reported melting point. C=CCOC(=O)NC(=O)C(c1ccccc1)c1ccccc1
118 to 120 °C

Name the reported melting point value associated with the compound FC(F)(Br)C(F)(Cl)Br (configuration not stated)
-72.9 °C

For each of the compounds below, note its melting point.
1. CC(C)[C@H](NC(=O)N(C)Cc1csc(NC(=O)OC(C)(C)C)n1)C(=O)N[C@@H](Cc1ccccc1)[C@H](O)[C@@H](O)[C@H](Cc1ccccc1)NC(=O)[C@@H](NC(=O)N(C)Cc1csc(NC(=O)OC(C)(C)C)n1)C(C)C
2. CC(=O)OCC1OC(SCCCCCCOC2CCC3(C)C(=CCC4C3CCC3(C)C(C(C)CCCC(C)C)CCC43)C2)C(OC(C)=O)C(OC(C)=O)C1OC(C)=O (configuration not stated)
3. [C-]#[N+]C(=CC=C1C=C(c2ccccc2)C=C(c2ccccc2)O1)C(=O)OCC
4. CCC(C)(C)c1ccc(OCC(=O)Nc2cccc(C(=O)Nc3[nH]n(-c4c(Cl)cc(Cl)cc4Cl)c(=O)c3OC(=O)Nc3ccccc3)c2)c(C(C)(C)CC)c1
5. COc1ccc(N2C(=O)C3Cc4[nH]cnc4CN3C2=O)cc1 (configuration not stated)

["138 to 140 °C", "103 to 104 °C", "150 to 152 °C", "72 to 77 °C", "142 to 148 °C"]
